- STUDY TARGET: SARS-CoV-2 3CLpro (Severe acute respiratory syndrome coronavirus 2)
- PROTOCOL: biochemical
- Assay type: biochemical
- CONDITION SET: 4 h, sheet LOPAC_screen_w_protease; primary screen with protease, compound at 5 µM; replicate 1; read-out: Replicate_1

[
  {
    "COMPOUND": "CC1=C(C(=O)O)N2C(=O)[C@@H](NC(=O)[C@H](N)C3=CCC=CC3)[C@H]2SC1",
    "inhibition at 5 µM (%)": 2.84
  },
  {
    "COMPOUND": "CNc1ccc2oc(C[C@H]3O[C@@]4(CC[C@H]3C)O[C@H]([C@H](C)C(=O)c3ccc[nH]3)[C@H](C)C[C@H]4C)nc2c1C(=O)O",
    "inhibition at 5 µM (%)": 2.08
  },
  {
    "COMPOUND": "CCOC(=O)c1ncn2c1CN(C)C(=O)c1cc(F)ccc1-2",
    "inhibition at 5 µM (%)": 5.09
  },
  {
    "COMPOUND": "CNC(=O)OCC[N+](C)(C)C [Methylcarbamylcholine chloride]",
    "inhibition at 5 µM (%)": 4.73
  },
  {
    "COMPOUND": "CN1C(C(=O)Nc2ccccn2)=C(O)c2ccccc2S1(=O)=O",
    "inhibition at 5 µM (%)": 1.9
  },
  {
    "COMPOUND": "Nc1cc(N2CCCCC2)nc(N)[n+]1[O-]",
    "inhibition at 5 µM (%)": 3.92
  }
]

###

- STUDY TARGET: SARS-CoV-2 3CLpro (Severe acute respiratory syndrome coronavirus 2, UniProt P0DTD1)
- PROTOCOL: biochemical
- Assay type: biochemical
- CONDITION SET: 4 h, sheet LOPAC_screen_w_protease; LOPAC1280 primary screen with protease, 5 µM compound; replicate 2; read-out: Replicate_2
Structures can show the parent of a compound that is named as a salt.
The following compounds are listed with their measured inhibition at 5 µM values.

[
  {
    "COMPOUND": "COC(=O)Nc1nc2ccc(C(=O)c3cccs3)cc2[nH]1",
    "STUDY TARGET": "SARS-CoV-2 3CLpro (Severe acute respiratory syndrome coronavirus 2, UniProt P0DTD1)",
    "inhibition at 5 µM": "6.49%"
  },
  {
    "COMPOUND": "O=c1[nH]c2ccccc2n1CCCN1CCN(C(c2ccccc2)c2ccccc2)CC1 [Oxatomide]",
    "STUDY TARGET": "SARS-CoV-2 3CLpro (Severe acute respiratory syndrome coronavirus 2, UniProt P0DTD1)",
    "inhibition at 5 µM": "5.86%"
  },
  {
    "COMPOUND": "O=C(O)c1cccnc1Nc1cccc(C(F)(F)F)c1",
    "STUDY TARGET": "SARS-CoV-2 3CLpro (Severe acute respiratory syndrome coronavirus 2, UniProt P0DTD1)",
    "inhibition at 5 µM": "5.13%"
  },
  {
    "COMPOUND": "CCOC(=O)C1=C(C)NC(=S)NC1c1cccc(O)c1 (stereo not shown)",
    "STUDY TARGET": "SARS-CoV-2 3CLpro (Severe acute respiratory syndrome coronavirus 2, UniProt P0DTD1)",
    "inhibition at 5 µM": "6.55%"
  },
  {
    "COMPOUND": "CC(COc1ccccc1)N(CCCl)Cc1ccccc1 (stereo not shown) [Phenoxybenzamine hydrochloride]",
    "STUDY TARGET": "SARS-CoV-2 3CLpro (Severe acute respiratory syndrome coronavirus 2, UniProt P0DTD1)",
    "inhibition at 5 µM": "4.41%"
  },
  {
    "COMPOUND": "S=C=Nc1cccc(C2(N3CCCCC3)CCCCC2)c1 [Metaphit methanesulfonate]",
    "STUDY TARGET": "SARS-CoV-2 3CLpro (Severe acute respiratory syndrome coronavirus 2, UniProt P0DTD1)",
    "inhibition at 5 µM": "5.54%"
  },
  {
    "COMPOUND": "CNC1(C)C2CCC(C2)C1(C)C (stereo not shown) [Mecamylamine hydrochloride]",
    "STUDY TARGET": "SARS-CoV-2 3CLpro (Severe acute respiratory syndrome coronavirus 2, UniProt P0DTD1)",
    "inhibition at 5 µM": "4.09%"
  },
  {
    "COMPOUND": "NC(=O)C(=O)O [Sodium Oxamate]",
    "STUDY TARGET": "SARS-CoV-2 3CLpro (Severe acute respiratory syndrome coronavirus 2, UniProt P0DTD1)",
    "inhibition at 5 µM": "4.48%"
  },
  {
    "COMPOUND": "NCCCCNCCCN [Spermidine trihydrochloride]",
    "STUDY TARGET": "SARS-CoV-2 3CLpro (Severe acute respiratory syndrome coronavirus 2, UniProt P0DTD1)",
    "inhibition at 5 µM": "5.03%"
  },
  {
    "COMPOUND": "CC(=O)OCC1=C(C(=O)O)N2C(=O)[C@@H](NC(=O)Cc3cccs3)[C@H]2SC1 [Cephalothin sodium]",
    "STUDY TARGET": "SARS-CoV-2 3CLpro (Severe acute respiratory syndrome coronavirus 2, UniProt P0DTD1)",
    "inhibition at 5 µM": "5.61%"
  }
]

Origin of the recorded values: paper PMC7587356
